Measured amyloid nucleation score of individual entries
test: amyloid nucleation score (Sup35N fusion, yeast selection) (log enrichment); library NNK2; higher = more nucleation; inactive = no reads after selection;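 also: zero at mode of non-aggregating sequences after 7 days selection at 30°C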
Experimental readout: amyloid nucleation score

[[record]]
substance = "EFLLNMAYSSGGSWTEVFRV"
experimental_value = -0.005

[[record]]
substance = "RSYQMSGPIALRKWEEEWAE"
experimental_value = 0.611

[[record]]
substance = "FWSSCSLEVYRGFSFAH"
experimental_value = 3

[[record]]
substance = "MSSCLRL"
experimental_value = 4.51

[[record]]
substance = "RKVLWKSDTSSLLNEWSIAH"
experimental_value = -0.178

[[record]]
substance = "NFFVFYIR"
experimental_value = 7.06

[[record]]
substance = "LELVCRPISMALLEEWKGTR"
experimental_value = 0.393

[[record]]
substance = "SVTYWGWPTILAVRKCLFNS"
experimental_value = 2.5


----------
Below, each of the sequences is paired with its reported amyloid nucleation score value.
experiment: amyloid nucleation score (Sup35N fusion, yeast selection) (log enrichment); library NNK2; higher = more nucleation; inactive = no reads after selection
Experimental readout: amyloid nucleation score

[[record]]
sequence_chain = "FQSVLCYE"
experimental_value = -0.708

[[record]]
sequence_chain = "RSTPLKYNLRFIPLSHGRRV"
experimental_value = -0.431

[[record]]
sequence_chain = "GSLHVNGVVHVSDCHVTY"
experimental_value = 1.34

[[record]]
sequence_chain = "CSKMLTSNRVC"
experimental_value = -0.583

[[record]]
sequence_chain = "GIMQCFGSMRMQWCNSDKEC"
experimental_value = 5.02

[[record]]
sequence_chain = "TRASYFCQSTANYSVSRSNM"
experimental_value = 1.8

[[record]]
sequence_chain = "YRDRINSNYFALDFNILLHY"
experimental_value = 3.57

[[record]]
sequence_chain = "SGSLSINDNSCYGENTNTVL"
experimental_value = -1.21

[[record]]
sequence_chain = "NSIYTESHGCTSSCLYGSGY"
experimental_value = -0.839

[[record]]
sequence_chain = "GGGNCKKGYGCDVDCYESEG"
experimental_value = -0.735

[[record]]
sequence_chain = "VQKTIVKLLAWLCFRGTAYC"
experimental_value = 0.486

[[record]]
sequence_chain = "MNYLCASSGVLVKN"
experimental_value = -0.055

[[record]]
sequence_chain = "LGVCICPCRAPEMKDTSHDA"
experimental_value = 4.92

[[record]]
sequence_chain = "MMGWFPRKLES"
experimental_value = -0.125


----------
experiment: amyloid nucleation score (Sup35N fusion, yeast selection) (log enrichment); library NNK2; higher = more nucleation; inactive = no reads after selection
Experimental readout: amyloid nucleation score

[[record]]
substance = "INLYPR"
experimental_value = "inactive"

[[record]]
substance = "RTSCVYSHWQHNIERLLGRW"
experimental_value = "inactive"

[[record]]
substance = "NSLLNFVFSVYVKACIIPYT"
experimental_value = "inactive"


----------
test: amyloid nucleation score (Sup35N fusion, yeast selection) (log enrichment); library NNK1; higher = more nucleation; inactive = no reads after selection
Experimental readout: amyloid nucleation score

[[record]]
sequence_chain = "VRVLGVIMYARLLPVGLWGY"
experimental_readout = "amyloid nucleation score"
experimental_value = "inactive"

[[record]]
sequence_chain = "WAAFLVMDGWICDQAYMTMR"
experimental_readout = "amyloid nucleation score"
experimental_value = "inactive"

[[record]]
sequence_chain = "RYKWMYFCFHLIMVGNRMSA"
experimental_readout = "amyloid nucleation score"
experimental_value = "inactive"

